Origin of measurements: ChEMBL document CHEMBL2406954

procedure.summary: Cytotoxicity in human HeLa cells after 24 hrs by XTT assay
Format: cell-based
Reported MCC at 24 h is given for each of the following compounds.
Give your result in µM as a bare value.

>>> df
                                   compound  measurement_name  observed
0  O=[N+]([O-])C1=Cc2cc(Cl)cc(Cl)c2OC1c1ccc(F)cc1 (stereo unspecified)       MCC at 24 h         6
1         O=[N+]([O-])/C=C/c1cc(Cl)cc(Br)c1       MCC at 24 h       2.7
2    O=[N+]([O-])/C=C/c1c(F)c(F)c(F)c(F)c1F       MCC at 24 h      0.01
3  O=[N+]([O-])C1=Cc2cc(Cl)ccc2OC1c1ccc(F)cc1 (stereo unspecified)       MCC at 24 h         6
4  COc1ccc(CSc2ccc([N+](=O)[O-])c3nonc23)cc1       MCC at 24 h       1.7

Now, please, on to the next compound.
Please fill in: MCC at 24 h reported for O=[N+]([O-])/C=C/c1ccc(F)cc1Br = 10

###

procedure.summary: Therapeutic index, ratio of MCC for human HeLa cells to MIC for Helicobacter pylori
Type: cell-based
measurement.conditions: read-out: TI
measurement.name: selectivity ratio
# output: bare number, no unit

Reference set (8 entries):
In [3]: df
Out[3]:
                                item_smiles  observed
0      O=[N+]([O-])/C=C/c1cc(C(F)(F)F)ccc1F      15.1
1       O=[N+]([O-])/C=C/c1cccc(C(F)(F)F)c1       8.4
2                O=[N+]([O-])/C=C/c1ccccc1I       0.2
3         O=[N+]([O-])/C=C/c1c(F)cc(Cl)cc1F      37.7
4            O=[N+]([O-])/C=C/c1ccc(F)cc1Br       2.1
5          COc1cccc(/C=C(\C)[N+](=O)[O-])c1       0.3
6  O=[N+]([O-])/C=C/c1cc(C(F)(F)F)cc(C(F)(F)F)c1       1.5
7   O=[N+]([O-])/C=C/c1ccc(Cl)c(C(F)(F)F)c1       4.7

The recorded selectivity ratio for COc1ccc(Sc2ccc([N+](=O)[O-])c3nonc23)cc1 is 1.5

Sure, the documented selectivity ratio for O=[N+]([O-])/C=C/c1ccc(F)cc1 is 18.9

###

Below: a set of entries, each annotated with reported selectivity ratio.
procedure.summary: Therapeutic index, ratio of MCC for human HeLa cells to MIC for Helicobacter pylori
Type: cell-based
measurement.conditions: read-out: TI
No unit in the answer, please; the number alone is enough.

In [3]: df
Out[3]:
                                   molecule   measurement_name  observed
0         O=[N+]([O-])/C=C/c1cc(Cl)cc(Cl)c1  selectivity ratio       0.8
1  O=[N+]([O-])C1=Cc2c(ccc3ccccc23)OC1c1ccc(F)cc1 (stereo unspecified)  selectivity ratio       8.3
2    O=[N+]([O-])/C=C/c1c(F)c(F)c(F)c(F)c1F  selectivity ratio     0.001
3             O=[N+]([O-])/C=C/c1ccc(Br)cc1  selectivity ratio      15.1
4              O=[N+]([O-])/C=C/c1ccc(I)cc1  selectivity ratio       9.4

So for O=[N+]([O-])/C=C/c1ccccc1C(F)(F)F , the logged selectivity ratio turned out to be 0.04
